Catalogue of pKd values
# test system: CSF1R (Homo sapiens)
# Sequence (P07333 20-972): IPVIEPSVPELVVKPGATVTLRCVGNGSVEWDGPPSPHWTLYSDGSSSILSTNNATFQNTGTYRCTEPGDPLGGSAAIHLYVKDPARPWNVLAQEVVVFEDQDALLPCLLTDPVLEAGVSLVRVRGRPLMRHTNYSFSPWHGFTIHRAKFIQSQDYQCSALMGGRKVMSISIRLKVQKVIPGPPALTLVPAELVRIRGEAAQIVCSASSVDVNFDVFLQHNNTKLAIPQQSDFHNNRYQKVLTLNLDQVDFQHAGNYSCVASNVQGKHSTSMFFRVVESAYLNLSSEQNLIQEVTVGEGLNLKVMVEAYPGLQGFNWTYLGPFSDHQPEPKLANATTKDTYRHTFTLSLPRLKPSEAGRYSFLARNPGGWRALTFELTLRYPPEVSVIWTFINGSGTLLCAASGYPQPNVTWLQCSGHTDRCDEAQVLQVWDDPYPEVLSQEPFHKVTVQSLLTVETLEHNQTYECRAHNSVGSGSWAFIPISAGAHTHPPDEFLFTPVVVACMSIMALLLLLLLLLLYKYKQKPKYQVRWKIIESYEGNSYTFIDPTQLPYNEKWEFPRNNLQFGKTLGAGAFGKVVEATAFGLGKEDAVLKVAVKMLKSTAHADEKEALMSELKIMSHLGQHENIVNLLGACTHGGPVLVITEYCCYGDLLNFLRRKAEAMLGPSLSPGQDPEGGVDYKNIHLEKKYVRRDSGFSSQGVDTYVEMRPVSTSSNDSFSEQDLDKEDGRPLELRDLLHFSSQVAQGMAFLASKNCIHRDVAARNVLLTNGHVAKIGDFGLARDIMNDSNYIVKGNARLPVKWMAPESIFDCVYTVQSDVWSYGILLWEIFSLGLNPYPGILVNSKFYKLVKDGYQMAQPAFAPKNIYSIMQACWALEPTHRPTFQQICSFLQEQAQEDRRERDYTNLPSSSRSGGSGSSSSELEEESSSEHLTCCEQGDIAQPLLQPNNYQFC
# experiment description: Competition binding assay, CSF1R Kd
# Design: made in house
pKd: −log10 of the molar value.
quantity measured: pKd

| compound | test system | data value |
| --- | --- | --- |
| COc1cc2ncn(Cc3ccc4nc(NCc5ccncc5)sc4c3)c2cc1OC [Example 21] | CSF1R (Homo sapiens) | < 7.30 |
| COc1cc2ncn(Cc3ccc4nc(NCC5CCCCC5)sc4c3)c2cc1OC [Example 28] | CSF1R (Homo sapiens) | 7.70 to 8.30 |
| O[C@H]1CCCC[C@H]1Nc1nc2ccc(Cn3cnc4ccccc43)cc2s1 (racemic) [Example 1] | CSF1R (Homo sapiens) | 7.70 to 8.30 |
| O[C@@H]1Cc2ccccc2[C@H]1Nc1nc2ccc(Cn3cnc4cccnc43)cc2s1 [Example 46] | CSF1R (Homo sapiens) | ≥ 8.30 |
| O[C@@H]1Cc2ccccc2[C@H]1Nc1nc2ccc(Cn3cnc4cc(Br)cnc43)cc2o1 [Example 62] | CSF1R (Homo sapiens) | ≥ 8.30 |
| COc1cc2ncn(Cc3ccc4nc(NC5CCOC5)sc4c3)c2cc1OC (racemic) [Example 25] | CSF1R (Homo sapiens) | < 7.30 |
| O=C(O)c1cnc2c(c1)ncn2Cc1ccc2nc(N[C@@H]3CCCC[C@H]3O)sc2c1 [Example 81] | CSF1R (Homo sapiens) | 7.30 to 7.70 |
| COc1cc2ncn(Cc3ccc4nc(N[C@@H]5CCCCC[C@H]5O)sc4c3)c2cc1OC (racemic) [Example 50] | CSF1R (Homo sapiens) | ≥ 8.30 |

----------
# test system: CSF1R (Homo sapiens)
# experiment description: HEK293 CSF1R phosphorylation MSD assay
# Assay type: cell-based
# Set-up: expressed in transfected cells; host or cells: HEK293
# applied conditions: HEK293 cells, M-CSF stimulated CSF1R phosphorylation, MSD; read-out: HEK293 pCSF1R M-CSF MSD:IC50

| mol smiles | test system | IC50 |
| --- | --- | --- |
| O[C@@H]1CCCC[C@H]1Nc1nc2ccc(Cc3cnc4[nH]c5ccccc5n34)cc2s1 | CSF1R (Homo sapiens) | > 500 nM |
| O=c1c(N2CCOCC2)nccn1Cc1ccc2nc(N[C@@H]3CCCC[C@H]3O)sc2c1 | CSF1R (Homo sapiens) | > 500 nM |
| CN1CCN(c2ccn3c(Cc4ccc5nc(N[C@@H]6CCCC[C@H]6O)sc5c4)cnc3c2)CC1 | CSF1R (Homo sapiens) | 50 to 200 nM |
| O=C(O)/C=C/c1ccc2c(c1)ncn2Cc1ccc2nc(N[C@@H]3CCCC[C@H]3O)sc2c1 | CSF1R (Homo sapiens) | > 500 nM |
| O[C@@H]1CCCC[C@H]1Nc1nc2ccc(Cn3cnc4ccc(Br)cc43)cc2s1 | CSF1R (Homo sapiens) | 50 to 200 nM |
| COc1ccc2ncc(Cc3ccc4nc(N[C@@H]5CCCC[C@H]5O)sc4c3)n2c1 | CSF1R (Homo sapiens) | > 500 nM |
| O[C@@H]1CCCC[C@H]1Nc1nc2ccc(Cc3cnc4cccc(F)n34)cc2s1 | CSF1R (Homo sapiens) | 200 to 500 nM |
| CN1CCN(c2ccc3ncc(Cc4ccc5nc(N[C@@H]6CCCC[C@H]6O)sc5c4)n3n2)CC1 | CSF1R (Homo sapiens) | 200 to 500 nM |
| C=Cc1ccc2c(c1)ncn2Cc1ccc2nc(N[C@@H]3CCCC[C@H]3O)sc2c1 | CSF1R (Homo sapiens) | ≤ 50 nM |
| O[C@@H]1CCCC[C@H]1Nc1nc2ccc(Cn3cnc4cc(Cl)c(Cl)nc43)cc2s1 | CSF1R (Homo sapiens) | ≤ 50 nM |
| O[C@H]1CC[C@H](Nc2nc3ccc(Cn4cnc5cc(F)cnc54)cc3s2)CC1 | CSF1R (Homo sapiens) | > 500 nM |
| Oc1ccc2c(c1)ncn2Cc1ccc2nc(N[C@@H]3CCCC[C@H]3O)sc2c1 | CSF1R (Homo sapiens) | ≤ 50 nM |
| Cn1cc(-c2ccc3c(c2)ncn3Cc2ccc3nc(N[C@@H]4CCCC[C@H]4O)sc3c2)c(C(F)(F)F)n1 | CSF1R (Homo sapiens) | 50 to 200 nM |
| CCOc1ccc2c(c1)ncn2Cc1ccc2nc(N[C@@H]3CCCC[C@H]3O)sc2c1 | CSF1R (Homo sapiens) | ≤ 50 nM |
| O[C@@H]1CCCC[C@H]1Nc1nc2c(F)cc(Cn3cnc4cccnc43)c(F)c2s1 | CSF1R (Homo sapiens) | > 500 nM |
| CC(C)(O)C#Cc1cnc2c(c1)ncn2Cc1ccc2nc(N[C@@H]3CCCC[C@H]3O)sc2c1 | CSF1R (Homo sapiens) | ≤ 50 nM |
